- Tested on: SNB-75
- protocolDetails: NCI tumour cell line growth inhibition, 48 h
The source made the active and inactive calls. Cut-off read from the data, not from the text of the source: active = GI50 up to about 1.1 µM and inactive = higher.
Parameter GI50: see the listing below.

Reported GI50 for O=C(/C=C/c1ccccc1)NNC(=O)c1c(Cl)c(Cl)c(Cl)c(Cl)c1-c1nc2ccccc2[nH]1 was 18.2 µM (inactive)

Reported GI50 for Nc1c2c(nc3cc(F)c(F)cc13)CCC2 was 42.5 µM (inactive)

Reported GI50 for C=C1c2nc3ccccc3n2C=C(c2ccccc2)N1c1ccccc1 was > 100 µM (inactive)

----------
- Tested on: OVCAR-5
- protocolDetails: NCI tumour cell line growth inhibition, 48 h
The source made the active and inactive calls. Cut-off read from the data, not from the text of the source: active = GI50 up to about 1.1 µM and inactive = higher.
The categories you may choose from are active, inactive

CCOC(=O)c1c(-c2cccc(Cl)c2)c(C(=O)OC)c(C)c2sc(C=O)nc12	inactive

Req: Would you mind telling me which call this test gave c1ccc(-c2ccc(-c3ccc(C4=NCCN4)cc3)o2)cc1 ?
Resp: inactive

Req: Would you mind telling me which call this test gave O=C1c2ccccc2-c2nnc(-c3ccccc3)cc21 ?
Resp: inactive

Req: Would you mind telling me which call this test gave OCC1OC(n2cnc3c2NC=NC[C@H]3O)C(O)C1O (some centres not stated) ?
Resp: inactive

Req: Would you mind telling me which call this test gave C=CCN1C(=O)CC1N(CC=C)S(=O)(=O)c1ccc(C)cc1 (configuration not stated) ?
Resp: inactive

Req: Would you mind telling me which call this test gave COc1cc(CN[C@H]2CCc3cc(OC)c(OC)c(OC)c3-c3ccc(SC)c(=O)cc32)cc(OC)c1 ?
Resp: active

Req: Would you mind telling me which call this test gave O=S(=O)(N/N=C1\CC2CCC1C2)c1ccccc1 (configuration not stated) ?
Resp: inactive
